# TESTED TARGET: TRPA1 (Homo sapiens, UniProt O75762)
# Construct: cultured human airway cells, including fibroblasts, epithelial and smooth muscle cells express functional TRPA1 channels; endogenous in cells; host or cells: SAEC, NHLF, HBSMC (Lonza, primary); A549, IMR90 (ATCC)
# Sequence (O75762 whole entry): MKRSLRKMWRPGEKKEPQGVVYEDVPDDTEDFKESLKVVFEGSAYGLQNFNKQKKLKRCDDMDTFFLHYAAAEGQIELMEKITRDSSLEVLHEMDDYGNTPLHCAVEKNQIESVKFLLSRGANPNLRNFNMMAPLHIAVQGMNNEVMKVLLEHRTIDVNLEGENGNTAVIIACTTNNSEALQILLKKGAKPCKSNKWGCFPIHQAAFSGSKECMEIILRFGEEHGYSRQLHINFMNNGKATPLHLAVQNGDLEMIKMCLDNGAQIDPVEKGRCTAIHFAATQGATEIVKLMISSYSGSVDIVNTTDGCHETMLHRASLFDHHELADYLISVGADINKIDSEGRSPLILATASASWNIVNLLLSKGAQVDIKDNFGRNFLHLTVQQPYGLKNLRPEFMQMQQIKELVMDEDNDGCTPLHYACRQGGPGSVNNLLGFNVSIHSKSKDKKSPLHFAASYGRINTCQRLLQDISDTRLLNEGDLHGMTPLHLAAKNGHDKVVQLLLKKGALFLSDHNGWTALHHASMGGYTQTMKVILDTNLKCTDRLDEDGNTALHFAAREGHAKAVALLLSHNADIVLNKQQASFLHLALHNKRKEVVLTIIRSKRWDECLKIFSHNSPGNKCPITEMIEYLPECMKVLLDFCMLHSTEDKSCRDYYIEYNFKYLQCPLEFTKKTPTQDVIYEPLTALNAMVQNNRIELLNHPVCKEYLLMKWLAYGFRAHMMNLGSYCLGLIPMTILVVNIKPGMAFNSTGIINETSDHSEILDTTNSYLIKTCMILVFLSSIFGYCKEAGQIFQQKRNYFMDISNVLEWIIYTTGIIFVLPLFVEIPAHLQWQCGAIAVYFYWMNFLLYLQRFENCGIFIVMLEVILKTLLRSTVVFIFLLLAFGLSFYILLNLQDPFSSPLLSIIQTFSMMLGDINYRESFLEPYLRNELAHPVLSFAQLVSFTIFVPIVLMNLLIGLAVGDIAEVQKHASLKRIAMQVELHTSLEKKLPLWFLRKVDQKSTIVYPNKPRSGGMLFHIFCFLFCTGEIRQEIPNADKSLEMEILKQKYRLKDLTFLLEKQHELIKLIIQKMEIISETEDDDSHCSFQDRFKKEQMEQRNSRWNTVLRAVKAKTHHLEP
# METHOD NOTES: Calcium imaging (Fura-2) of TRPA1 agonist responses in human airway/lung cells
# Type: cell-based
# CONDITION DETAILS: A549; intracellular calcium response
pEC50: −log10 of the molar value.
REPORTED METRIC: pEC50

O=C/C=C/c1ccccc1 [Cinnamaldehyde, cinnamaldehyde] | 4.96
C=CC=O [Acrolein, acrolein] | 5.14

---

Measured EC50 by item
# TESTED TARGET: TRPA1 (Homo sapiens)
# Construct: cultured human airway cells, including fibroblasts, epithelial and smooth muscle cells express functional TRPA1 channels; endogenous in cells; host or cells: SAEC, NHLF, HBSMC (Lonza, primary); A549, IMR90 (ATCC)
# METHOD NOTES: Calcium imaging (Fura-2) of TRPA1 agonist responses in human airway/lung cells
# Format: cell-based
# CONDITION DETAILS: IMR90; intracellular calcium response
REPORTED METRIC: EC50 (µM)

C=CC=O | 2.9
O=C/C=C/c1ccccc1 | 2.7
